B1: POU domain, class 3, transcription factor 2, residues 356 to 411; numbered along this chain, P20265 (parent)
chain: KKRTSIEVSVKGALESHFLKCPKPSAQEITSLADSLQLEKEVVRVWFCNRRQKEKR

Variants of: B1
procedureSummary: abundance fitness (aPCA) (normalised: wild type 0, dead -1); higher = more abundant; growth selection in yeast, the domain comes from the species named
conditionInfo: Homo sapiens
measurementLabel: abundance fitness
// no unit string in output, number only

# count of solved cases: 4
variantdescriptor=A13K observedmeasurement=0.081
variantdescriptor=K23Y observedmeasurement=-0.312
variantdescriptor=K20H observedmeasurement=-0.463
variantdescriptor=S5Q observedmeasurement=0.095

Which abundance fitness is reported for this variant? `T4C` -0.287
